assay: self-splicing fitness, log relative to wild type (ln ratio); higher = more splicing; Tetrahymena group I intron in knt gene, E. coli kanamycin selection, DiMSum; sequences stand for … in CUCUCU…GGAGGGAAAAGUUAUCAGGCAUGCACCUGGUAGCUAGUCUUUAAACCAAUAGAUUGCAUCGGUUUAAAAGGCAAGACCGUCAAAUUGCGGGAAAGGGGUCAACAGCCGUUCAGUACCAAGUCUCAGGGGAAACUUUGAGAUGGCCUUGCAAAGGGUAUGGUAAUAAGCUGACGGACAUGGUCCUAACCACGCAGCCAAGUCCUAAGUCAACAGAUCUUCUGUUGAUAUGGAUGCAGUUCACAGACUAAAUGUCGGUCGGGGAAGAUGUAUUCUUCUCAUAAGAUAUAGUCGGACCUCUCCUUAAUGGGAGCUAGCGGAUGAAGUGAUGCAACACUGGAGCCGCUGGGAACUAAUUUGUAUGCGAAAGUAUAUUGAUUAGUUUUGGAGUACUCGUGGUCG; details: 30 °C;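 note: selection with 25 µg/mL kanamycin versus none on LB agar overnight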
Could you label it Criterion met if measured self-splicing fitness (ln) is -2 or higher, and Criterion not met otherwise?

In [3]: df
Out[3]:
             seq_string              class
0  UACUAGCAAUAUUACGCCUC  Criterion not met
1  UCUUAGCAAUAUUACGGCCU  Criterion not met
2  GUACAGCAAUAUUACGAUAG  Criterion not met
3  GACUAGCAAUAUUACGCCCG      Criterion met
4  UUACAGCAAUAUUACGGCAC      Criterion met
5  UACGAGCAAUAUUACGAGGU  Criterion not met
6  AACAAGCAAUAUUACGGGCG      Criterion met
7  CCCCAGCAAUAUUACGCCCG      Criterion met

Task: self-splicing fitness (ln) >= -2 for `CCUUAGCAAUAUUACGUACA` ?
Output: Criterion not met

Task: Please do the same for `ACAAAGCAAUAUUACGUAUC` as well.
Output: Criterion not met

Task: Then `CAUAAGCAAUAUUACGCAUA` ?
Output: Criterion not met
